Reported Population Normal (%) values for the following compounds.
Tested on: U2OS
PROCEDURE SUMMARY: Multiplex assay against U2OS
Type: toxicity, cell-based
PROTOCOL CONDITIONS: human, 24 h, 1 µM, compound concentration 1 uM, replicate 1

[
  {
    "COMPOUND": "OC1(c2ccc(Cl)cc2)CCN(Cc2c[nH]c3ccccc23)CC1",
    "Population Normal (%)": 95
  },
  {
    "COMPOUND": "C[C@@H](NCCCc1cccc(C(F)(F)F)c1)c1cccc2ccccc12.Cl [CINACALCET HYDROCHLORIDE]",
    "Population Normal (%)": 96
  },
  {
    "COMPOUND": "O=C1NCN(c2ccccc2)C12CCN(CCCOc1ccc(F)cc1)CC2 [SPIRAMIDE]",
    "Population Normal (%)": 92
  },
  {
    "COMPOUND": "CN(C)C(=O)/C(C#N)=C/c1ccc(-c2nc3cnc4[nH]ccc4c3n2C2CCCCC2)o1",
    "Population Normal (%)": 94
  },
  {
    "COMPOUND": "CC(C)(O)CNc1ncc(-c2ccnc(Nc3ccnc(Cl)c3)n2)c(CC2CC2)n1",
    "Population Normal (%)": 96
  },
  {
    "COMPOUND": "CC[C@H](C)C(=O)O[C@H]1C[C@@H](C)C=C2C=C[C@H](C)[C@H](CC[C@@H]3C[C@@H](O)CC(=O)O3)[C@H]21",
    "Population Normal (%)": 92
  },
  {
    "COMPOUND": "CN1CCN(CCOc2cc(OC3CCOCC3)c3c(Nc4c(Cl)ccc5c4OCO5)ncnc3c2)CC1",
    "Population Normal (%)": 95
  },
  {
    "COMPOUND": "Cc1nc(-c2cn3c(n2)-c2ccc(-c4cnn(C(C)(C)C(N)=O)c4)cc2OCC3)n(C(C)C)n1",
    "Population Normal (%)": 95
  },
  {
    "COMPOUND": "CCN(CC)CCCCNc1ncc2cc(-c3cc(OC)cc(OC)c3)c(NC(=O)NC(C)(C)C)nc2n1",
    "Population Normal (%)": 39
  },
  {
    "COMPOUND": "Cc1cc(C)cc(-c2cnc3cc(Cl)c(-c4cccc(O)c4)cc3c2OCCCN)c1",
    "Population Normal (%)": 94
  },
  {
    "COMPOUND": "CN(C)C(=O)N[C@H]1CC[C@H](CCN2CCN(c3cccc(Cl)c3Cl)CC2)CC1.Cl [CARIPRAZINE HYDROCHLORIDE]",
    "Population Normal (%)": 90
  },
  {
    "COMPOUND": "Cc1csc2c(N[C@@H](C)CN3CCN(S(=O)(=O)c4ccc(Cl)c(Cl)c4)CC3)ncnc12",
    "Population Normal (%)": 91
  },
  {
    "COMPOUND": "Cc1nc(-c2ccc(-c3ccc(C(=O)N4CCc5cc6c(cc54)C4(CCN(C)CC4)CO6)cc3)c(C)c2)no1",
    "Population Normal (%)": 93
  },
  {
    "COMPOUND": "NC(=O)Nc1cc(-c2cccc(F)c2)sc1C(=O)N[C@H]1CCCNC1",
    "Population Normal (%)": 93
  },
  {
    "COMPOUND": "CNc1nc(NCc2ccc(NS(C)(=O)=O)cc2Cl)cc(-c2ccccn2)n1",
    "Population Normal (%)": 91
  },
  {
    "COMPOUND": "C=CC(=O)Nc1cccc(C(=O)Nc2ccc(Nc3cc(-c4[nH]c(SC)nc4C)ccn3)cc2)c1",
    "Population Normal (%)": 95
  },
  {
    "COMPOUND": "COc1cc(-n2cnc3cc(-c4ccc(Cl)cc4)sc3c2=O)ccc1OCCN1CCCC1",
    "Population Normal (%)": 93
  }
]
